- Tested on: guinea pig
- test_summary: Antibody titre (antibovine serum albumin or antiovalbumin) in sera by passive hemagglutination or Farr radioimmune assay
- Assay type: in vivo
- recorded_conditions: dose 50 μg per guinea pig, s.c. in FIA emulsion; sera of day 42; relative to FIA = 1
Returns TRUE if the recorded Average Potency, Antibody Titre is greater than or equal to 5, and FALSE otherwise.

Is it the case that CC(=O)N[C@H]1C(O)O[C@H](CO)[C@@H](O)[C@@H]1O[C@H](C)C(=O)N[C@@H](C)C(=O)N[C@H](CCC(=O)O)C(N)=O (some centres unmarked) [reference compound] has Average Potency, Antibody Titre reaching or exceeding 5?
FALSE

Is it the case that CC(=O)N[C@H]1C(O)O[C@H](CO)[C@@H](O)[C@@H]1O[C@H](C)C(=O)N[C@H](C(=O)N[C@H](CCC(=O)O)C(N)=O)C(C)C (some centres unmarked) has Average Potency, Antibody Titre reaching or exceeding 5?
FALSE

Is it the case that CC(=O)N[C@H]1C(O)O[C@H](CO)[C@@H](O)[C@@H]1O[C@H](C)C(=O)N1CCC[C@H]1C(=O)N[C@H](CCC(=O)O)C(N)=O (some centres unmarked) has Average Potency, Antibody Titre reaching or exceeding 5?
TRUE

Is it the case that CC(=O)N[C@H]1C(O)O[C@H](CO)[C@@H](O)[C@@H]1O[C@H](C)C(=O)N[C@@H](CC(C)C)C(=O)N[C@H](CCC(=O)O)C(N)=O (some centres unmarked) has Average Potency, Antibody Titre reaching or exceeding 5?
TRUE

Is it the case that CC(=O)N[C@H]1C(O)O[C@H](CO)[C@@H](O)[C@@H]1O[C@H](C)C(=O)N[C@@H](Cc1ccccc1)C(=O)N[C@H](CCC(=O)O)C(N)=O (some centres unmarked) has Average Potency, Antibody Titre reaching or exceeding 5?
TRUE
